pIC50: −log10 of the molar value.
List of pIC50 tested on Dipeptidyl peptidase 4 (Homo sapiens, UniProt P27487).
Sequence (P27487 whole entry): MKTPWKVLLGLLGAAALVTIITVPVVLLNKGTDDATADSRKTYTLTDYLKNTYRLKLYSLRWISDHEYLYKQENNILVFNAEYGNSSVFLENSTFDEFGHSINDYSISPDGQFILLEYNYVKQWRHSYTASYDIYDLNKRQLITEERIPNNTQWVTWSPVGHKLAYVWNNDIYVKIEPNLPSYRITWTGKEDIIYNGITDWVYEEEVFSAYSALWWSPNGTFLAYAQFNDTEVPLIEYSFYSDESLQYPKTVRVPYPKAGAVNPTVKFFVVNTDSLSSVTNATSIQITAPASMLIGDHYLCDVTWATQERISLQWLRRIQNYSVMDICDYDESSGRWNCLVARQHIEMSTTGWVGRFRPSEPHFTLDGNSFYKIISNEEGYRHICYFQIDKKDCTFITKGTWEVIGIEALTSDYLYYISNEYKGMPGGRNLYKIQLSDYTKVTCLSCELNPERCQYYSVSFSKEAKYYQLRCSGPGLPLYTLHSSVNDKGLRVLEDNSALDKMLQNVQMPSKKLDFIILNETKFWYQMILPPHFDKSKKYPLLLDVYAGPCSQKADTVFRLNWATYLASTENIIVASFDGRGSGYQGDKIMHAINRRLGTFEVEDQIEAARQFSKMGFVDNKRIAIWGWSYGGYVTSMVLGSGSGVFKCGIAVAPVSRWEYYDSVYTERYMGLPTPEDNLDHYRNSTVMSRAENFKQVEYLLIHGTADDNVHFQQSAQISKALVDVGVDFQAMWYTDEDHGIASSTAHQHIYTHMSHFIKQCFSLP
measurementType: pIC50

INSERT INTO results (molecule, value) VALUES
  ('N[C@@H](CC1CCCCC1)C(=O)NC(C1CCCCC1)P(=O)(Oc1ccccc1)Oc1ccccc1 (some centres undefined)', '< 3.60'),
  ('CC(NC(=O)[C@@H](N)Cc1cnc[nH]1)P(=O)(Oc1ccccc1)Oc1ccccc1 (some centres undefined)', '< 3.30'),
  ('CC(NC(=O)CN)P(=O)(Oc1ccccc1)Oc1ccccc1 (centres undefined)', '< 3.30'),
  ('CCC(C)C(NC(=O)[C@@H](N)C(C)CC)P(=O)(Oc1ccccc1)Oc1ccccc1 (some centres undefined)', '< 3.00');
